Test system: LG0703-F948-PDC complex spheroid viability
Experiment: Anticancer human tumor LG0703-F948-PDC patient-derived lung adenocarcinoma cell line growth inhibition
Conditions: curve of first compound; second compound 0.1 µM
List of IC50 values.
Give the value, in units of nM, as a plain number.

The cases that follow already have their IC50 on record.
COc1cc(Nc2ncc3c(n2)-c2ccc(Cl)cc2C(c2c(F)cccc2OC)=NC3)ccc1C(=O)O + NC1CCC(NC2CC2c2ccccc2)CC1 ... 218
CC1(C)CCC(CN2CCN(c3ccc(C(=O)NS(=O)(=O)c4ccc(NCC5CCOCC5)c([N+](=O)[O-])c4)c(Oc4cnc5[nH]ccc5c4)c3)CC2)=C(c2ccc(Cl)cc2)C1 + NC1CCC(NC2CC2c2ccccc2)CC1 ... 2380

Q: Provide one value: measured IC50 of COc1ccc([C@@H](O)c2cc(-c3ncnc4cc(N5CCOCC5)ccc34)c(F)cc2Cl)nn1 + NC1CCC(NC2CC2c2ccccc2)CC1
A: 1160

Q: Provide one value: measured IC50 of COc1cc(Nc2ncc3c(n2)-c2ccc(Cl)cc2C(c2c(F)cccc2OC)=NC3)ccc1C(=O)O + NC1CC1c1ccc(-c2cccc(O)c2)cc1
A: 199

* * *

System: LG0703-F948-PDC complex spheroid viability
Experiment: Anticancer human tumor LG0703-F948-PDC cell line growth inhibition; active means viability on the fitted dose curve at most 10% of control; inactive means the rest;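 note: spheroids exposed to agents for seven days before readout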
Settings: second compound 3.16 µM; first compound 0.0316 µM
Returns: one label drawn from 1 = active, -1 = inactive

Examples from the recorded data:
COc1ccc([C@@H](O)c2cc(-c3ncnc4cc(N5CCOCC5)ccc34)c(F)cc2Cl)nn1 + NC1CC1c1ccc(-c2cccc(O)c2)cc1 ... -1
CC(C)CC(NC(=O)CNC(=O)c1cc(Cl)ccc1Cl)B1OC(=O)CC(CC(=O)O)(C(=O)O)O1 (configuration not stated) + NC1CCC(NC2CC2c2ccccc2)CC1 ... 1
Nc1ncn(C2CC(O)C(CO)O2)c(=O)n1 (configuration not stated) + NC1CCC(NC2CC2c2ccccc2)CC1 ... -1
CC(C)CC(NC(=O)C(Cc1ccccc1)NC(=O)c1cnccn1)B(O)O (configuration not stated) + NC1CC1c1ccc(-c2cccc(O)c2)cc1 ... 1
Cn1ncnc1C1c2n[nH]c(=O)c3cc(F)cc(c23)NC1c1ccc(F)cc1 (configuration not stated) + NC1CCC(NC2CC2c2ccccc2)CC1 ... -1
O=C(C=Cn1cnc(-c2cc(C(F)(F)F)cc(C(F)(F)F)c2)n1)NNc1cnccn1 + NC1CC1c1ccc(-c2cccc(O)c2)cc1 ... -1
Cn1ncnc1C1c2n[nH]c(=O)c3cc(F)cc(c23)NC1c1ccc(F)cc1 (configuration not stated) + NC1CC1c1ccc(-c2cccc(O)c2)cc1 ... -1
CC1COCCN1c1cc(C2(S(C)(=N)=O)CC2)nc(-c2ccnc3[nH]ccc23)n1 (configuration not stated) + NC1CCC(NC2CC2c2ccccc2)CC1 ... -1

Next:
Q: Identify the outcome logged in this assay for the compound shown: CC(C)c1c(-c2ccccc2)nc2c(C#N)c[nH]n2c1=O + NC1CCC(NC2CC2c2ccccc2)CC1
A: -1

* * *

System: LG0703-F948-PDC complex spheroid viability
Test: Anticancer human tumor LG0703-F948-PDC cell line growth inhibition;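 note: spheroids exposed to agents for seven days before readout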;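 for viability, T/C: 100% = DMSO vehicle control wells as normalization base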
Conditions: second compound 3.16 µM; first compound 3.16 µM; stronger effect = lower value
From the text: Multicellular complex tumor spheroid response to LSD1 Inhibitor Iadademstat in combination with a variety of drugs and investigational agents in selected tumor cell lines The current study was undertaken to assess response to LSD1 inhibitors in combination with standard-of-care drugs and investigational agents in solid tumor complex spheroid models as well as in the K-562 leukemia. […] Compounds. […] If the clinical Cmax for an agent had not been determined, the highest concentration tested was 10 microM. […]
viability, T/C less than 80% is rule met; viability, T/C greater than or equal to 80% is rule not met.

Examples from the recorded data:
CC1(C)CCC(CN2CCN(c3ccc(C(=O)NS(=O)(=O)c4ccc(NCC5CCOCC5)c([N+](=O)[O-])c4)c(Oc4cnc5[nH]ccc5c4)c3)CC2)=C(c2ccc(Cl)cc2)C1 + NC1CCC(NC2CC2c2ccccc2)CC1 ... rule met
CC1COCCN1c1cc(C2(S(C)(=N)=O)CC2)nc(-c2ccnc3[nH]ccc23)n1 (stereo not given) + NC1CCC(NC2CC2c2ccccc2)CC1 ... rule met
O=C(c1cc(Cc2n[nH]c(=O)c3ccccc23)ccc1F)N1CCN(C(=O)C2CC2)CC1 + NC1CC1c1ccc(-c2cccc(O)c2)cc1 ... rule not met
CC(C)c1c(-c2ccccc2)nc2c(C#N)c[nH]n2c1=O + NC1CCC(NC2CC2c2ccccc2)CC1 ... rule not met
CC1COCCN1c1cc(C2(S(C)(=N)=O)CC2)nc(-c2ccnc3[nH]ccc23)n1 (stereo not given) + NC1CC1c1ccc(-c2cccc(O)c2)cc1 ... rule met

Q: Consider the compound COc1ccc([C@@H](O)c2cc(-c3ncnc4cc(N5CCOCC5)ccc34)c(F)cc2Cl)nn1 + NC1CCC(NC2CC2c2ccccc2)CC1 . Is its viability, T/C strictly less than 80%?
A: rule met

Q: Consider the compound CC1(C)CCC(CN2CCN(c3ccc(C(=O)NS(=O)(=O)c4ccc(NCC5CCOCC5)c([N+](=O)[O-])c4)c(Oc4cnc5[nH]ccc5c4)c3)CC2)=C(c2ccc(Cl)cc2)C1 + NC1CC1c1ccc(-c2cccc(O)c2)cc1 . Is its viability, T/C strictly less than 80%?
A: rule met

Q: Consider the compound COc1ccc([C@@H](O)c2cc(-c3ncnc4cc(N5CCOCC5)ccc34)c(F)cc2Cl)nn1 + NC1CC1c1ccc(-c2cccc(O)c2)cc1 . Is its viability, T/C strictly less than 80%?
A: rule met

Q: Consider the compound O=C(c1cc(Cc2n[nH]c(=O)c3ccccc23)ccc1F)N1CCN(C(=O)C2CC2)CC1 + NC1CCC(NC2CC2c2ccccc2)CC1 . Is its viability, T/C strictly less than 80%?
A: rule not met

* * *

Test system: LG0703-F948-PDC complex spheroid viability
Experiment: Anticancer human tumor LG0703-F948-PDC cell line growth inhibition;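 note: spheroids exposed to agents for seven days before readout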;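 for viability, T/C: 100% = DMSO vehicle control wells as normalization base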
Conditions: second compound 0.316 µM; first compound 0.003 µM; stronger effect = lower value
measure: viability, T/C

The cases that follow already have their viability, T/C on record.
CCc1c2c(nc3ccc(O)cc13)-c1cc3c(c(=O)n1C2)COC(=O)[C@]3(O)CC + NC1CCC(NC2CC2c2ccccc2)CC1 ... 40.2%
Nc1ncn(C2CC(O)C(CO)S2)c(=O)n1 (stereo unspecified) + NC1CCC(NC2CC2c2ccccc2)CC1 ... 123%
Nc1ncn(C2CC(O)C(CO)S2)c(=O)n1 (stereo unspecified) + NC1CC1c1ccc(-c2cccc(O)c2)cc1 ... 92.7%
Nc1ccn(C2OC(CO)C(O)C2(F)F)c(=O)n1 (stereo unspecified) + NC1CC1c1ccc(-c2cccc(O)c2)cc1 ... 63.9%

Q: Provide one value: measured viability, T/C of CCc1c2c(nc3ccc(O)cc13)-c1cc3c(c(=O)n1C2)COC(=O)[C@]3(O)CC + NC1CC1c1ccc(-c2cccc(O)c2)cc1
A: 37.7%

Q: Provide one value: measured viability, T/C of Nc1ccn(C2OC(CO)C(O)C2(F)F)c(=O)n1 (stereo unspecified) + NC1CCC(NC2CC2c2ccccc2)CC1
A: 52.3%

* * *

List of IC50 values.
Tested on: LG0703-F948-PDC complex spheroid viability
Assay: Anticancer human tumor LG0703-F948-PDC cell line growth inhibition;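 note: spheroids exposed to agents for seven days before readout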
Settings: curve of first compound; second compound 0.1 µM

The cases that follow already have their IC50 on record.
O=C(c1cc(Cc2n[nH]c(=O)c3ccccc23)ccc1F)N1CCN(C(=O)C2CC2)CC1 + NC1CC1c1ccc(-c2cccc(O)c2)cc1 ... > 10000 nM
O=C(C=Cc1cccc(S(=O)(=O)Nc2ccccc2)c1)NO + NC1CCC(NC2CC2c2ccccc2)CC1 ... 78.2 nM

Field: next compound
Q: Provide one value: measured IC50 of Nc1ncn(C2CC(O)C(CO)S2)c(=O)n1 (stereo not drawn) + NC1CCC(NC2CC2c2ccccc2)CC1
A: > 300 nM

* * *

List of viability, T/C values.
Test system: LG0703-F948-PDC complex spheroid viability
Assay: Anticancer human tumor LG0703-F948-PDC cell line growth inhibition;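 note: spheroids exposed to agents for seven days before readout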;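 for viability, T/C: 100% = DMSO vehicle control wells as normalization base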
Conditions: second compound 10 µM; first compound 0.003 µM; stronger effect = lower value
Give the value, in units of %, as a plain number.

Q: Provide one value: measured viability, T/C of CCc1c2c(nc3ccc(O)cc13)-c1cc3c(c(=O)n1C2)COC(=O)[C@]3(O)CC + NC1CCC(NC2CC2c2ccccc2)CC1
A: 59

Q: Provide one value: measured viability, T/C of CCc1c2c(nc3ccc(O)cc13)-c1cc3c(c(=O)n1C2)COC(=O)[C@]3(O)CC + NC1CC1c1ccc(-c2cccc(O)c2)cc1
A: 47.3

Q: Provide one value: measured viability, T/C of Nc1ccn(C2OC(CO)C(O)C2(F)F)c(=O)n1 (stereo unspecified) + NC1CC1c1ccc(-c2cccc(O)c2)cc1
A: 78.3

Q: Provide one value: measured viability, T/C of Nc1ccn(C2OC(CO)C(O)C2(F)F)c(=O)n1 (stereo unspecified) + NC1CCC(NC2CC2c2ccccc2)CC1
A: 56.8

Q: Provide one value: measured viability, T/C of Nc1ncn(C2CC(O)C(CO)S2)c(=O)n1 (stereo unspecified) + NC1CCC(NC2CC2c2ccccc2)CC1
A: 126

Q: Provide one value: measured viability, T/C of Nc1ncn(C2CC(O)C(CO)S2)c(=O)n1 (stereo unspecified) + NC1CC1c1ccc(-c2cccc(O)c2)cc1
A: 94.7
